- Target or test system: T1, monomeric hIL-4R (R&D Systems) (human, UniProt P24394 26-231)
- T1 construct: Bought (R&D Systems); also called hIL-4R monomer
- T1 sequence: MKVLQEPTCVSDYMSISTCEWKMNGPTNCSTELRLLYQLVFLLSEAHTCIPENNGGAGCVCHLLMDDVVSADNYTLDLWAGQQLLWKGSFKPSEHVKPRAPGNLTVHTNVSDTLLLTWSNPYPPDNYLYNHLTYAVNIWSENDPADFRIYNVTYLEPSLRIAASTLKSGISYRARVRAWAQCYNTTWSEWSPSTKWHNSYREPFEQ
- Measurement description: SPR (BIAcore 2000); antibody captured, monomeric hIL-4R injected
pKd: −log10 of the molar value.
Decision: pKd compared against 9; not below it gives yes, below it gives no.

- Binder: "VAK5H4-4 (antibody, V domains shown, Apparently tested with mouse constant region (anti-mouse IgG capture/detection)) VH: QVRLVESGGGVVQPGGSLRLSCVASGFTFRSYGMHWVRQAPGRGLEWVAVISYDGSKTFYVDSVKVRFTISRDNSKNTLYLEMNSLRVDDTAVYFCVKEGRSGSWFDPWGQGTLVAVSS VL: DIQMTQSPSSLSASVGDRVTITCRASQAINNFLAWFQQKPGKTPNSLIFATSSLQSGVPSRFSAGGSGTDFTLTISSLQPEDFATYYCQQYNSHPWTFGQGTKVEIK"
  Cat: "yes"
- Binder: "VAB 16F3-1 (antibody, V domains shown, Apparently tested with mouse constant region (anti-mouse IgG capture/detection)) VH: QVQLVQSGAEVKKPGASVKVSCKASGYTFNSYGISWVRQAPGQGLEWMGWIRTYNGNTNYAQKLQGRVTMTTDTSTSTAYMELRSLRSDDTAVYYCARDEARIVVAGTTPYYYGMDVWGQGTTVTVSS VL: DIQMTQSPSSVSASVGDRVTITCRASQDISIWLAWYQQSPGKAPKLLINVASRLQSGVPSRFSGSGSGTDFTLTINSLQPEDFVTYYCQQANSFPITFGQGTRLATK"
  Cat: "yes"
- Binder: "VX 3F7-6 (antibody, V domains shown, 395/397; 399/401 without saying which was assayed; Apparently tested with mouse constant region (anti-mouse IgG capture/detection)) VH: EVQLVESGGGLVQPGGSLRLSCAASGFTFSSFWMTWVRQAPGKGLEWVANIKQDGSEKYYVDSVKGRFTISRDNAKNSLYLQMNSLRAEDTAVYYCARDPGRTMVRGGIRYYYGMDVWGQGTTVTVSS VL: DIQMTQSPSSVSASVGDRVTISCRASQGVSSWLAWYQQKPGNAPKLLISAASSIQSGVPSRFSGSGSGTDFTLTISSLQPEDFATYYCQQANSFPLTFGGGTKVEIK"
  Cat: "no"
- Binder: "VAB 1H1-2 (antibody, V domains shown, Apparently tested with mouse constant region (anti-mouse IgG capture/detection)) VH: QVQLVQSGAEVKKPGASVKVSCKASGYTFTSYGISWVRQAPGQGLEWMGWISVYNGNTNYAQKLQGRVTMTTDTSTSTAYMDLRSLRSDDAAVYYCARGSGYDFDYWGQGTLVTVSS VL: AIQMTQSPSSLSASVGDRVTITCRASQGIRNALGWYQQKPGKAPKLLIYAASSLQSGVPSRFSGSGSGTDFTLTISSLQSEDFATYYCLQDYNYPYTFGQGTKLEIK"
  Cat: "no"
- Binder: "VAK8G11-13 (antibody, V domains shown, Apparently tested with mouse constant region (anti-mouse IgG capture/detection)) VH: QVRLVESGGGVVQPGGSLRLSCAASGFIFRSYGMHWVRQAPGRGLEWVAVISYDGSKTFYVDSVKVRFTISRDNSKNTLYLEMNSLRVDDTAVYFCVKEGRSGSWFDPWGQGTLVAVSS VL: DIHMTQSPSSLSASVGDRVTITCRASQAINNFLAWFQQKPGKTPKSLIFATSSLQSGVPSRFSGSGSGTDFTLTISSLQPEDFATYYCQQYNSHPWTFGQGTKVEIK"
  Cat: "yes"
- Binder: "VAK12B11-9 (antibody, V domains shown, Apparently tested with mouse constant region (anti-mouse IgG capture/detection)) VH: QVQLVESGGGVVQPGRSLRLSCAASGFTFSSYAMYWVRQAPGKGLEWVAVISYDGSNKYYTDSVKGRFTVSRDNSKNTLFLQMNSLRAEDTALYYCAKESSSYGLDVWGQGTTVTVSS VL: DIQMTQSPSTLSASVGDRVAITCRASQSISNWLAWYQQKPGKAPKLLISKASSLKSGVPSRFSGSGSGTEFTLTISSLQPDDFAAYYCQQYNSYSYTFGQGTKLEIK"
  Cat: "yes"
